System Tested: MAO-A (Homo sapiens, UniProt P21397)
Sequence (P21397 1-527): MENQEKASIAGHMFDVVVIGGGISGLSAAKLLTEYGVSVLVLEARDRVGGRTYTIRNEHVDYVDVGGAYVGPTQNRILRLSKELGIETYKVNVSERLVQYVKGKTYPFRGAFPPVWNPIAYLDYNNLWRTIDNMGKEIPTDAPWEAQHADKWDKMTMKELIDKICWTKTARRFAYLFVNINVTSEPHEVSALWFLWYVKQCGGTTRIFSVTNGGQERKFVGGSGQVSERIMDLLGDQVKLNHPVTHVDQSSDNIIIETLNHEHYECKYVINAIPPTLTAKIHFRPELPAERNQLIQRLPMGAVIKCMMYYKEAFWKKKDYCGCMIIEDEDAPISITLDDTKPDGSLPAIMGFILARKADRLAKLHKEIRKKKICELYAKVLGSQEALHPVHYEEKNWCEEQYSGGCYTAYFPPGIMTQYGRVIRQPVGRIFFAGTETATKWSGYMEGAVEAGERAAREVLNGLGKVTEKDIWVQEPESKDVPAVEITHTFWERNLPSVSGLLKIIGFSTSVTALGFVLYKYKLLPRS
*1 amine or outer side, *2 acyl side, *3 side chain or, on linkers, in order; H or OH if unused. Where a SMILES comes first, the peptide text is derived from it. [ ]: non-standard residue; d: D form. Lys((1R,2S)-2-Ph-cPr) = N[C@@H](CCCCN[C@@H]1C[C@H]1c1ccccc1)C(=O)O; X1 = O=C(C1(N[*:1])C2CC3CC(C2)CC1C3)[*:2]; Ac6c = NC1(C(=O)O)CCCCC1; Aib = CC(C)(N)C(=O)O
// reported IC50 for each item listed

Compound	IC50
C[C@H](N)C(=O)N[C@@H](CCCNC(=N)N)C(=O)NC(C)(C)C(=O)N[C@@H](CCCCN[C@@H]1C[C@H]1c1ccccc1)C(=O)NC(C)(C)C(=O)N[C@H](C(=O)N[C@@H](C)C(=O)N[C@@H](CCCNC(=N)N)C(=O)N[C@@H](CCCCN)C(=O)N[C@@H](CO)C(=O)N[C@H](C(=O)O)[C@@H](C)O)[C@@H](C)O [peptide 2a] (H-AR[Aib][Lys((1R,2S)-2-Ph-cPr)][Aib]TARKST-OH; C-terminus assumed)	> 10 µM
C[C@H](N)C(=O)N[C@@H](CCCNC(=N)N)C(=O)NC1(C(=O)N[C@@H](CCCCN[C@@H]2C[C@H]2c2ccccc2)C(=O)NC2(C(=O)N[C@H](C(=O)N[C@@H](C)C(=O)N[C@@H](CCCNC(=N)N)C(=O)N[C@@H](CCCCN)C(=O)N[C@@H](CO)C(=O)N[C@H](C(=O)O)[C@@H](C)O)[C@@H](C)O)CCCCC2)CCCCC1 [peptide 2b] (H-AR[Ac6c][Lys((1R,2S)-2-Ph-cPr)][Ac6c]TARKST-OH; C-terminus assumed)	> 10 µM
C[C@H](N)C(=O)N[C@@H](CCCNC(=N)N)C(=O)N[C@H](C(=O)N[C@@H](CCCCN[C@@H]1C[C@H]1c1ccccc1)C(=O)N[C@@H](CCC(N)=O)C(=O)N[C@H](C(=O)N[C@@H](C)C(=O)N[C@@H](CCCNC(=N)N)C(=O)N[C@@H](CCCCN)C(=O)N[C@@H](CO)C(=O)N[C@H](C(=O)O)[C@@H](C)O)[C@@H](C)O)[C@@H](C)O [peptide 1, reference compound]	> 10 µM
C[C@H](N)C(=O)N[C@@H](CCCNC(=N)N)C(=O)NC1(C(=O)N[C@@H](CCCCN[C@@H]2C[C@H]2c2ccccc2)C(=O)NC2(C(=O)N[C@H](C(=O)N[C@@H](C)C(=O)N[C@@H](CCCNC(=N)N)C(=O)N[C@@H](CCCCN)C(=O)N[C@@H](CO)C(=O)N[C@H](C(=O)O)[C@@H](C)O)[C@@H](C)O)C3CC4CC(C3)CC2C4)C2CC3CC(C2)CC1C3 (stereo partly drawn) [2c] (H-AR[X1][Lys((1R,2S)-2-Ph-cPr)][X1]TARKST-OH; C-terminus assumed)	> 10 µM
